target: GABAB receptor (GABABR1a/GABABR2 heterodimer) (Homo sapiens, UniProt O75899+Q9UBS5); assay: [35S]-GTPγS binding assay, potency of PAM (GABA dose-response curves with and without test compound); conditions: potency of the positive allosteric modulator; GABA dose-response in presence of test compound
Sequence (Q9UBS5 15-961 limits assumed): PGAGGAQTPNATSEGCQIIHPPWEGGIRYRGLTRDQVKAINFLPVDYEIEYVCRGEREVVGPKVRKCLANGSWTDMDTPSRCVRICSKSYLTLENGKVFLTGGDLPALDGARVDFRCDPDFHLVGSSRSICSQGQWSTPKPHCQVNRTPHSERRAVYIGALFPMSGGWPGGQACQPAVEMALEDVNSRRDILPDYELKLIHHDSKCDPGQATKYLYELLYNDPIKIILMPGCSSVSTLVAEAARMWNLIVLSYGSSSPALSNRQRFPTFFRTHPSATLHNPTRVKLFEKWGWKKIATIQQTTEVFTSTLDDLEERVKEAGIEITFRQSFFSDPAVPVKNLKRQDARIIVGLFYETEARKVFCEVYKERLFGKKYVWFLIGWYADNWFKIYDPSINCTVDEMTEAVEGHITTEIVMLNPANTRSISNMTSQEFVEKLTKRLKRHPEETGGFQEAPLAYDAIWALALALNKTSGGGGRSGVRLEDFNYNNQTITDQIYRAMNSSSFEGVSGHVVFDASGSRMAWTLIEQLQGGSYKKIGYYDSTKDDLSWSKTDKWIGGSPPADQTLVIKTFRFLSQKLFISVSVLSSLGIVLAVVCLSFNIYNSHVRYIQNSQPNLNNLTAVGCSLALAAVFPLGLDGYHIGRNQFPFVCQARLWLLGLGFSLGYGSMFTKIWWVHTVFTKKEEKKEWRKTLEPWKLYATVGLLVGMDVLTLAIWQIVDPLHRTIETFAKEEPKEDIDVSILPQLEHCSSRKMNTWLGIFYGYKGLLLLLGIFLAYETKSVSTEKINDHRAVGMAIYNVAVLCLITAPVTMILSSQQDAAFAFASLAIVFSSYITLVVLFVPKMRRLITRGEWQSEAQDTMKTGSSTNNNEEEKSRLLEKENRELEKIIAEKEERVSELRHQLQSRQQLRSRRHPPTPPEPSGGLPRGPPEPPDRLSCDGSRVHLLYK
Sequence (O75899 42-941): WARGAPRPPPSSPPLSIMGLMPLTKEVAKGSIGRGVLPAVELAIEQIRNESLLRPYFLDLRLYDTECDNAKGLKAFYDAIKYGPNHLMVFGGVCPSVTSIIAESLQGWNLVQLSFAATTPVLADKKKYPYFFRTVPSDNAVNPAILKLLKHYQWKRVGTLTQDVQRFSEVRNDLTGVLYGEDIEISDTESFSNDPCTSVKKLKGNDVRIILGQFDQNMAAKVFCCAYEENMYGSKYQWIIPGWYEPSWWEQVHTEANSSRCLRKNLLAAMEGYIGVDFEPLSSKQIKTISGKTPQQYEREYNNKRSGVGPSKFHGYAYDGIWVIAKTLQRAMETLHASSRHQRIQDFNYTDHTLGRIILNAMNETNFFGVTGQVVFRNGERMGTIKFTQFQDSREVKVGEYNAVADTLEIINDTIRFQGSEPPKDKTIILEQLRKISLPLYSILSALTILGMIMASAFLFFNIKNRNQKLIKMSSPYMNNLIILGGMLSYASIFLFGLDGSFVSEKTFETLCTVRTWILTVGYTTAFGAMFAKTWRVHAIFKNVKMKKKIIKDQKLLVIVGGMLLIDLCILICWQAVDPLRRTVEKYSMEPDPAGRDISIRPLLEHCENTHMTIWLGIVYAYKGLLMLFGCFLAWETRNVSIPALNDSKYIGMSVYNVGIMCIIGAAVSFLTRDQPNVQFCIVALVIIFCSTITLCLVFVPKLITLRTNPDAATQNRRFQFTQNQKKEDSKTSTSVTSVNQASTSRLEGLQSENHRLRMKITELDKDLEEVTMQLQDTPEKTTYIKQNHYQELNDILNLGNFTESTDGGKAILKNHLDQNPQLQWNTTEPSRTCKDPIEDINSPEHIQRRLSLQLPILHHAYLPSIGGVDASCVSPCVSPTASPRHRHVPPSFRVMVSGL
Assignment: determine reported pEC50 for the given compounds.
Bear in mind: pEC50 is minus log10 of a mol/L concentration; give just that figure.

Report pEC50, nothing else, for this compound: CCc1nc2c(c(=O)n(Cc3ccc(Cl)cc3)c(=O)n2C[C@@H]2CCC(=O)N2)n1C [Example 10] 4.84

Please report the measured pEC50 for CCc1nc2c(c(=O)n(Cc3ccc(Cl)cc3)c(=O)n2CCO[Si](C)(C)C(C)(C)C)n1C [Example 29] 5.07

Tell us which pEC50 value is on record for CCCn1c(=O)n(Cc2ccc(C(=O)c3ccccc3)cc2)c(=O)c2c1nc(CC)n2C [Example 68] 4.80

Hello, please tell me recorded pEC50 for this one: CCc1nc2c(c(=O)n(Cc3ccc(Cl)cc3)c(=O)n2CCCN2CCC3(CC2)OCCO3)n1C [Example 48] 4.92

----------
target: GABAB receptor (GABABR1a/GABABR2 heterodimer) (Homo sapiens, UniProt O75899+Q9UBS5); test: [35S]-GTPγS binding assay, potency of PAM (GABA dose-response curves with and without test compound); conditions: potency of the positive allosteric modulator; GABA dose-response in presence of test compound
Answer each item with its documented EC50.
Kindly provide the numeric value in µM only, without the unit symbol.

For GABAB receptor (GABABR1a/GABABR2 heterodimer) (Homo sapiens, UniProt O75899+Q9UBS5), give the measured EC50 of the entry CCCn1c(=O)n(Cc2ccc(Cl)cc2)c(=O)c2c1nc(N1CCC(OC)CC1)n2C [Example 84] 5.1

Report value: EC50, system: GABAB receptor (GABABR1a/GABABR2 heterodimer) (Homo sapiens, UniProt O75899+Q9UBS5), molecule: CCCn1c(=O)n(Cc2ccc(Cl)cc2Cl)c(=O)c2c1nc(CC)n2C [Example 60] 17.2

Provide EC50, tested on GABAB receptor (GABABR1a/GABABR2 heterodimer) (Homo sapiens, UniProt O75899+Q9UBS5), for CCc1nc2c(c(=O)n(Cc3ccc(Cl)cc3)c(=O)n2CCCOc2ccc(C(F)(F)F)cc2)n1C [Example 36] . 6.6

# return EC50 of CCCn1c(=O)n(Cc2ccc(Cl)cc2)c(=O)c2c1nc(Br)n2C [Example 95] (system: GABAB receptor (GABABR1a/GABABR2 heterodimer) (Homo sapiens, UniProt O75899+Q9UBS5)) 4.5

Quote GABAB receptor (GABABR1a/GABABR2 heterodimer) (Homo sapiens, UniProt O75899+Q9UBS5) EC50 for entry CCCn1c(=O)n(Cc2ccc3ccccc3c2)c(=O)c2c1nc(CC)n2C [Example 58] . 2.7

Fill in: EC50 on GABAB receptor (GABABR1a/GABABR2 heterodimer) (Homo sapiens, UniProt O75899+Q9UBS5), entry CCn1c(=O)n(Cc2ccc(Cl)cc2)c(=O)c2c1nc(OC)n2-c1ccc(F)cc1 [Example 77] 6.64

Param request: EC50 | system GABAB receptor (GABABR1a/GABABR2 heterodimer) (Homo sapiens, UniProt O75899+Q9UBS5) | item CCc1nc2c(c(=O)n(Cc3ccc(Cl)cc3)c(=O)n2CC2COc3ccccc3O2)n1C (centres unmarked) [Example 24] 5.1

GET EC50 | system: GABAB receptor (GABABR1a/GABABR2 heterodimer) (Homo sapiens, UniProt O75899+Q9UBS5) | item: CCc1nc2c(c(=O)n(Cc3ccc(Cl)cc3)c(=O)n2CC(=O)N2CCC(F)(F)C2)n1C [Example 50] 10
